The origin of these recorded values is paper PMC10410440.

Experiment: Plasma pharmacokinetics of SHR9146 in mice (LC-MS/MS, non-compartmental analysis)
Format: in vivo, ICR mice
Settings: male, ICR, mouse, plasma, po, 80 mg/kg, 80 mg/kg i.g. single dose; male mice; plasma; read-out: Tmax
observed_property: Tmax (h)
Your answer should be a plain number; it is taken to be in h.

Tmax recorded for this compound, `OCCn1cc(-c2ccc(N3CCC([C@H]4c5c(F)cccc5-c5cncn54)CC3)cc2)cn1` , is 1.83

* * *

Test: Tissue distribution of SHR9146 in mice after oral gavage of 40 mg/kg
Format: in vivo, ICR mice
Conditions: female, ICR, mouse, adrenal gland, po, 40 mg/kg, female, 24 h, 40 mg/kg oral gavage, individual mice; read-out: SHR9146 concentration in Adrenal gland
observed_property: concentration at 24 h (ng/g)
Your answer should be a plain number; it is taken to be in ng/g.

concentration at 24 h recorded for this compound, `OCCn1cc(-c2ccc(N3CCC([C@H]4c5c(F)cccc5-c5cncn54)CC3)cc2)cn1` , is 214
